test system: Staphylococcus aureus; test: Antibacterial activity against methicillin-sensitive Staphylococcus aureus isolate SDS15016 after 24 hrs by broth microdilution method; format: functional; settings: isolate SDS15016, 24 h
measurement.label: MIC
Kindly report the value followed by its unit.

// query Any idea what MIC came out for `Cc1onc(-c2ccccc2)c1C(=O)N[C@@H]1C(=O)N2[C@@H]1SC(C)(C)[C@@H]2C(=O)[O-].[Na+]` on Staphylococcus aureus?
// result 8 µg/mL

// query Any idea what MIC came out for `Oc1cc2ccc1-c1c(O)cccc1CCc1ccc(cc1)Oc1cc(cc(O)c1O)CC2` on Staphylococcus aureus?
// result 2 µg/mL

// query Any idea what MIC came out for `COc1cc2ccc1-c1c(O)cccc1CCc1ccc(cc1)Oc1cc(ccc1O)CC2` on Staphylococcus aureus?
// result 2 µg/mL

// query Any idea what MIC came out for `Oc1cc2ccc1-c1c(ccc(Br)c1O)CCc1ccc(cc1)Oc1cc(cc(Br)c1O)CC2` on Staphylococcus aureus?
// result 8 µg/mL

// query Any idea what MIC came out for `CC(C)(O/N=C(\C(=O)N[C@@H]1C(=O)N2C(C(=O)[O-])=C(C[n+]3ccccc3)CS[C@H]12)c1csc(N)n1)C(=O)O` on Staphylococcus aureus?
// result 4 µg/mL

// query Any idea what MIC came out for `Oc1cc2ccc1Oc1cc(cc(O)c1O)CCc1ccc(c(O)c1)-c1c(O)cccc1CC2` on Staphylococcus aureus?
// result 8 µg/mL

// query Any idea what MIC came out for `Oc1cc2ccc1Oc1cc(ccc1O)CCc1ccc(c(O)c1)-c1c(O)cccc1CC2` on Staphylococcus aureus?
// result 2 µg/mL

// query Any idea what MIC came out for `Oc1ccc2cc1Oc1ccc(cc1)CCc1ccc(Br)c(O)c1-c1cc(Br)c(cc1O)CC2` on Staphylococcus aureus?
// result 2 µg/mL

====

Kindly supply the reported MIC values for the records listed here.
system: Staphylococcus aureus; test: Antibacterial activity against methicillin-sensitive Staphylococcus aureus isolate SDS15016 after 24 hrs by broth microdilution method; format: functional; settings: isolate SDS15016, 24 h
Please respond with the number in µg/mL and leave the unit unwritten.

// query Can you look up the measured MIC of `Oc1ccc2cc1Oc1ccc(cc1)CCc1cccc(O)c1-c1ccc(c(Br)c1O)CC2` for me?
// result 2

// query Can you look up the measured MIC of `Oc1ccc2cc1Oc1ccc(cc1)CCc1c(Br)ccc(O)c1-c1ccc(c(Br)c1O)CC2` for me?
// result 2

// query Can you look up the measured MIC of `Oc1ccc2cc1Oc1ccc(cc1)CCc1c(Br)ccc(O)c1-c1cc(Br)c(cc1O)CC2` for me?
// result 2

// query Can you look up the measured MIC of `Oc1ccc2cc1Oc1ccc(cc1)CCc1ccc(Br)c(O)c1-c1ccc(c(Br)c1O)CC2` for me?
// result 4

// query Can you look up the measured MIC of `Oc1ccc2cc1Oc1ccc(cc1)CCc1cccc(O)c1-c1cc(Br)c(cc1O)CC2` for me?
// result 2

// query Can you look up the measured MIC of `Cc1onc(-c2ccccc2Cl)c1C(=O)N[C@@H]1C(=O)N2[C@@H]1SC(C)(C)[C@@H]2C(=O)O` for me?
// result 0.5

// query Can you look up the measured MIC of `CO/N=C(\C(=O)N[C@@H]1C(=O)N2C(C(=O)O)=C(COC(C)=O)CS[C@H]12)c1csc(N)n1` for me?
// result 4

// query Can you look up the measured MIC of `COc1cccc2c1-c1ccc(cc1O)CCc1ccc(O)c(c1)Oc1ccc(cc1)CC2` for me?
// result 2
